Item-by-item account of KD ratios, compared to 14-3-3γ, 14-3-3ζ
- MEASUREMENT TARGET: seven human 14-3-3 isoforms
- METHOD NOTES: Affinities averaged or compared across the 14-3-3 family (ΔΔGav, KD ratios, affinity maps)
- Type: binding
- CONDITION SUMMARY: Figure 4 panel c; 14-3-3ζ
Starred links: 1 amine or outer side, 2 acyl side, 3 side chain; linkers in the order of their positions; H or OH if unused. Non-standard residues stand in square brackets, D forms with d. Residues, ends and D or L forms follow the SMILES beside them. *: point of attachment. X1 = O=C(CCCC[C@@H]1SC[C@@H]2NC(=O)N[C@@H]21)NCCCOCCOCCOCCCN*; pT = C[C@@H](OP(=O)(O)O)[C@H](N)C(=O)O; Suc = O=C(CCC(=O)[*:2])[*:1]
QUANTITY KIND: KD ratios, compared to 14-3-3γ, 14-3-3ζ

1) CC(C)C[C@H](NC(=O)[C@H](C)NC(=O)[C@@H](NC(=O)[C@H](CCC(=O)O)NC(=O)[C@H](CCCNC(=N)N)NC(=O)[C@H](CCCNC(=N)N)NC(=O)[C@H](CCCNC(=N)N)NC(=O)[C@H](CO)NC(=O)[C@H](CCCNC(=N)N)NC(=O)[C@H](CO)NC(=O)CCC(=O)NCCCOCCOCCOCCCNC(=O)CCCC[C@@H]1SC[C@@H]2NC(=O)N[C@@H]21)[C@@H](C)OP(=O)(O)O)C(=O)O [pHPV33E6] ({X1-Suc}-SRSRRRE[pT]AL-OH): 2.89
2) CC(C)C[C@H](NC(=O)[C@H](CCCNC(=N)N)NC(=O)CCC(=O)NCCCOCCOCCOCCCNC(=O)CCCC[C@@H]1SC[C@@H]2NC(=O)N[C@@H]21)C(=O)N[C@@H](CCC(N)=O)C(=O)N[C@@H](CCCNC(=N)N)C(=O)N[C@@H](CCCNC(=N)N)C(=O)N[C@@H](CCCNC(=N)N)C(=O)N[C@@H](CCC(=O)O)C(=O)N[C@H](C(=O)N[C@@H](CCC(N)=O)C(=O)N[C@H](C(=O)O)C(C)C)[C@@H](C)OP(=O)(O)O: 2.04
3) CC(C)[C@H](NC(=O)[C@H](CCC(=O)O)NC(=O)[C@@H](NC(=O)[C@H](CCC(=O)O)NC(=O)[C@H](CCCNC(=N)N)NC(=O)[C@H](CCCNC(=N)N)NC(=O)[C@H](CCCNC(=N)N)NC(=O)[C@@H]1CCCN1C(=O)[C@H](CCCCN)NC(=O)[C@H](CO)NC(=O)CCC(=O)NCCCOCCOCCOCCCNC(=O)CCCC[C@@H]1SC[C@@H]2NC(=O)N[C@@H]21)[C@@H](C)OP(=O)(O)O)C(=O)O [pHPV35E6T-6R] ({X1-Suc}-SKPRRRE[pT]EV-OH): 1.95
4) CC(C)C[C@H](NC(=O)[C@H](CCC(N)=O)NC(=O)[C@@H](NC(=O)[C@H](CCC(=O)O)NC(=O)[C@H](CCCNC(=N)N)NC(=O)[C@H](CCCNC(=N)N)NC(=O)[C@@H](NC(=O)[C@H](CCCNC(=N)N)NC(=O)[C@H](CO)NC(=O)[C@H](CO)NC(=O)CCC(=O)NCCCOCCOCCOCCCNC(=O)CCCC[C@@H]1SC[C@@H]2NC(=O)N[C@@H]21)[C@@H](C)O)[C@@H](C)OP(=O)(O)O)C(=O)O: 1.98
5) CC(C)[C@H](NC(=O)[C@H](C)NC(=O)[C@@H](NC(=O)[C@H](CCC(=O)O)NC(=O)[C@H](CCCNC(=N)N)NC(=O)[C@H](CCCNC(=N)N)NC(=O)[C@@H](NC(=O)[C@@H]1CCCN1C(=O)[C@H](CCCCN)NC(=O)[C@H](CO)NC(=O)CCC(=O)NCCCOCCOCCOCCCNC(=O)CCCC[C@@H]1SC[C@@H]2NC(=O)N[C@@H]21)[C@@H](C)O)[C@@H](C)OP(=O)(O)O)C(=O)O [pHPV35E6E-1A] ({X1-Suc}-SKPTRRE[pT]AV-OH): 1.89
